tested on: NCI-H226 lung; test: NCI tumour cell line growth inhibition, 48 h
Where a SMILES comes first, the peptide text is derived from it. [ ]: non-standard residue; d: D form. The star is where a group is joined. Cbz = O=C(OCc1ccccc1)*; Boc = CC(C)(C)OC(=O)*; Aib = CC(C)(N)C(=O)O; OBn = c1ccc(CO*)cc1; OtBu = CC(C)(C)O*; βAla = NCCC(=O)O
Entries and their measured TGI follow.

{"columns": ["COMPOUND", "TGI"],
 "data": [
  ["CSC(=NC1=NC(C(F)(F)F)(C(F)(F)F)N=C(c2ccccc2)O1)SC", "83.9 µM"]
]}

Task: # lookup: TGI of CC(C)(C)OC(=O)CC(NC(=O)OC(C)(C)C)C(=O)NC(CCCCNC(=O)OCc1ccccc1)C(=O)NC(C)(C)C(=O)NCCC(=O)OCc1ccccc1 (centres undefined) (Boc-D(OtBu)K(Cbz)[Aib][βAla]-OBn; configuration not given here)
Output: > 100 µM

Task: # lookup: TGI of NC(=O)c1c[se]c(C2OC(CO)C(O)C2O)n1 (centres undefined)
Output: > 100 µM

Task: # lookup: TGI of CSC1SCC2C(=O)N(C)C3(CC3C)C(=O)OCC(NC(=O)c3nc4ccccc4cc3O)C(=O)NC(C)C(=O)N(C)C1C(=O)N(C)C1(CC1C)C(=O)OCC(NC(=O)c1nc3ccccc3cc1O)C(=O)NC(C)C(=O)N2C (centres undefined)
Output: < 0.0001 µM

Task: # lookup: TGI of `CC(=O)O/N=C/c1ncccc1CO`
Output: > 100 µM

Task: # lookup: TGI of `O=c1oc2ccccc2c(O)c1/C=N\c1nc(-c2ccccc2)cs1`
Output: 23 µM

Task: # lookup: TGI of `Cc1[nH]c(-c2ccccc2)c(-c2ccc(Cl)cc2)c1C(=O)ONC(=O)c1ccccc1`
Output: 11.6 µM

Task: # lookup: TGI of Cc1cc(S(=O)(=O)Nc2nc(N)nc(N3N=CCC3C)n2)c(S)cc1Cl (centres undefined)
Output: > 10 µM

Task: # lookup: TGI of CC(=O)NC(CCCCNC(=O)OCc1ccccc1)C(=O)NCc1ccccc1 (centres undefined)
Output: > 100 µM

* * *

system: DU-145 prostate; experiment: NCI tumour cell line growth inhibition, 48 h
Entries and their measured TGI follow.

For orientation, consider the following solved cases.
{"columns": ["MOLECULE", "RESULT"],
 "data": [
  ["COc1c/c(=C2/C=c3ccccc3=N2)[nH]/c1=C/c1[nH]c(C)cc1C", "> 100 µM"],
  ["Cc1ccc2c(c1)OC1Nc3ccccc3C1=C2O (stereo unspecified)", "> 100 µM"],
  ["Cc1cc(/C=C2\\SC(=Nc3ccccc3)N(C3CCCC3)C2=O)c(C)n1-c1ccc(Cl)cc1", "> 100 µM"],
  ["Oc1ccc(N=Nc2ccc(Cl)cc2)cc1", "30.8 µM"],
  ["Cc1cc(S(=O)(=O)Nc2nc(N)nc(N3N=CCC3C)n2)c(S)cc1Cl (stereo unspecified)", "> 10 µM"]
]}

Task: # lookup: TGI of `CC(C)(C)N1Cc2ccccc2/C(=C/Sc2ccccc2)C1=O`
Output: 32.7 µM

Task: # lookup: TGI of `CCOC(=O)[C@@H](C)C[C@H](Cc1ccccc1)NC(=O)c1csc([C@@H](C[C@H](C(C)C)N(C)C(=O)[C@@H](NC(=O)[C@H]2C[C@H](O[Si](C)(C)C(C)(C)C)CCN2C)C(C)C)OC(C)=O)n1`
Output: > 3.91 µM
